The values you see were collected from PubChem BioAssay AID1996.

Listed next: entries and their corresponding solubility kinetic.
condition.summary: buffer; pH 7.4; 200.0 µM

Reference set, count: 3
Value of measured solubility kinetic for the entry COc1ccccc1NS(=O)(=O)c1ccc2[nH]c(=S)oc2c1 : > 50.5 µg/mL

Value of measured solubility kinetic for the entry O=C(O)C1CCN(c2ccccc2[N+](=O)[O-])CC1 : > 37.5 µg/mL

Value of measured solubility kinetic for the entry COC(=O)C1CCN(CC(=O)NC(=O)NC2CCCCC2)CC1 : > 48.8 µg/mL

Others:
Value of measured solubility kinetic for the entry Cc1cccc(Oc2nc(-c3ccncc3)nc3ccccc23)c1 : < 0.2 µg/mL

Value of measured solubility kinetic for the entry O=C(Nc1ccc(CSc2ccccc2)cc1)c1ccco1 : < 0.7 µg/mL

Value of measured solubility kinetic for the entry CCOC(=O)c1nc(Nc2ccccc2CC)c2ccccc2n1 : > 48.2 µg/mL

Value of measured solubility kinetic for the entry COc1ccc(CNC(=S)Nc2ccccc2)cc1 : > 40.9 µg/mL

Value of measured solubility kinetic for the entry CCOC(=O)c1[nH]c(=O)[nH]c1CNc1ccccc1C#N : > 42.9 µg/mL

Value of measured solubility kinetic for the entry CC(C)Cc1nc2oc3c(Cl)ncnc3c2c2c1CCCC2 : < 0.2 µg/mL

----------
condition.summary: buffer; pH 7.4; 200.0 µM
Listed next: entries and their corresponding solubility kinetic.

Reference set, count: 6
Value of measured solubility kinetic for the entry COC(=O)c1cc2ccccc2n1S(=O)(=O)c1ccccc1 : < 0.7 µg/mL

Value of measured solubility kinetic for the entry COCCC(=O)N1CCc2c([nH]c3ccccc23)C1C(C)(C)C (stereo not drawn) : > 47.2 µg/mL

Value of measured solubility kinetic for the entry CC(C)(C)C(=O)Cn1ncc(N2CCOCC2)c(Cl)c1=O : > 47.1 µg/mL

Value of measured solubility kinetic for the entry C/C(=N\N=C(N)N)c1ccccc1 : > 26.4 µg/mL

Value of measured solubility kinetic for the entry CCCC(=O)Oc1ccc(C2NC(=O)c3ccccc3O2)cc1 (stereo not drawn) : < 0.7 µg/mL

Value of measured solubility kinetic for the entry Cl.c1ccc2c(c1)OCC(C1=NCCN1)O2 (stereo not drawn) : > 36.1 µg/mL

Others:
Value of measured solubility kinetic for the entry S=C(NCCc1ccccc1)N1CCCC1 : > 35.2 µg/mL

Value of measured solubility kinetic for the entry O=C(Nc1c(C(=O)O)[nH]c2ccccc12)c1cccc(C(F)(F)F)c1 : > 52.2 µg/mL

Value of measured solubility kinetic for the entry CC1CCN(C(=O)COC(=O)c2cccs2)CC1 : > 40.1 µg/mL

Value of measured solubility kinetic for the entry Cc1ccc(OCCCN2C(=O)C(=O)c3cc(C)ccc32)cc1 : < 0.7 µg/mL

Value of measured solubility kinetic for the entry Cc1cc(C(=O)Nc2ccc3c(c2)OCCO3)ccc1[N+](=O)[O-] : < 0.3 µg/mL

Value of measured solubility kinetic for the entry CCOc1ccccc1NS(=O)(=O)c1ccc2[nH]c(=O)[nH]c2c1 : > 50 µg/mL

Value of measured solubility kinetic for the entry Cc1cc(=O)[nH]c(SCC(=O)N2CCCCC2)n1 : > 40.1 µg/mL

----------
Listed next: entries and their corresponding solubility kinetic.
condition.summary: buffer; pH 7.4; 200.0 µM

Reference set, count: 5
Value of measured solubility kinetic for the entry CCOC(=O)c1c(O)c2cc(Cl)ccc2n(CC)c1=O : > 44.4 µg/mL

Value of measured solubility kinetic for the entry Cc1ccc(OCCN2CCOCC2)cc1C : > 35.3 µg/mL

Value of measured solubility kinetic for the entry Cc1c(NS(=O)(=O)c2cc(C(=O)N3CCCC(C)C3)ccc2Cl)c(=O)n(-c2ccccc2)n1C (stereo unspecified) : > 75.5 µg/mL

Value of measured solubility kinetic for the entry CN(Cc1ccc(Cl)cc1)C(=O)c1ccc2ccccc2n1 : > 46.6 µg/mL

Value of measured solubility kinetic for the entry Cc1cc(NC(=O)COC(=O)C2CC2)ccc1Br : > 46.8 µg/mL

Consider the record given below.
Value of measured solubility kinetic for the entry NS(=O)(=O)c1ccc(CCNC(=O)CN2C(=O)NC(c3ccccc3)(c3ccccc3)C2=O)cc1 : > 73.9 µg/mL
